Entry source: ChEMBL document CHEMBL2384996

Assay: Inhibition of Gloeobacter violaceus ligand-gated ion channel E177A mutant

| compound | IC50 [µM] |
| --- | --- |
| O=C(O)/C=C/c1ccc(O)c(O)c1 [CAFFEIC ACID] | 506 |

----------
Experiment: Dissociation constant, pKa of the compound
Type: physicochemical

| molecule | pKa |
| --- | --- |
| O=C(O)/C=C/c1ccc(O)c(O)c1 | 4.35 |
| O=C(O)C(=C/C=C/c1ccccc1)C(=O)O | 3.45 |
| O=C(O)CCc1ccc(O)c(O)c1 [DIHYDROCAFFEIC ACID] | 4.3 |
| O=C(O)/C=C/c1cccc(Cl)c1 | 4.8 |
| O=C(O)C(=Cc1ccccc1)C(=O)O | 3.5 |
| O=C(O)c1ccc2ccccc2c1 | 4.45 |
